Readings of pIC50 for the listed compounds
- TESTED_ON: Human thrombin (Homo sapiens, UniProt P00734)
pIC50: −log10 of the molar value.

COMPOUND	TESTED_ON	pIC50
CN(C)c1cccc2c(S(=O)(=O)Oc3ccc(C(=O)n4nc(-c5ccccc5)c(F)c4NCc4ccc(Cl)s4)cc3)cccc12 [Compound 27]	Human thrombin (Homo sapiens, UniProt P00734)	< 6.00
CN(C)c1cccc2c(S(=O)(=O)Nc3ccc(C(=O)n4nc(C5CCNCC5)c(F)c4NCc4ccc(Cl)s4)cc3)cccc12 [Compound 57]	Human thrombin (Homo sapiens, UniProt P00734)	> 7.00
O=C(c1ccoc1)n1nc(C2CCOCC2)c(F)c1NCc1ccc(Cl)s1 [Compound 49]	Human thrombin (Homo sapiens, UniProt P00734)	> 7.00
COCCOc1ccc(C(=O)n2nc(C3CCOCC3)c(F)c2NCc2ccc(Cl)s2)cc1 [Compound 52]	Human thrombin (Homo sapiens, UniProt P00734)	> 7.00
O=C1CCCN1c1ccc(-c2nn(C(=O)c3cccc4c3OCCO4)c(NCc3ccc(Cl)s3)c2F)cc1 [Compound 17]	Human thrombin (Homo sapiens, UniProt P00734)	> 7.00
COc1ccccc1C(=O)n1nc(C2CCN(S(=O)(=O)c3cccc4c(N(C)C)cccc34)CC2)c(F)c1NCc1ccc(Cl)s1 [Compound 40]	Human thrombin (Homo sapiens, UniProt P00734)	< 6.00
COCC(C)(C)C(=O)n1nc(C2CCNCC2)c(F)c1NCc1ccc(Cl)s1 [Compound 9]	Human thrombin (Homo sapiens, UniProt P00734)	> 7.00
COc1ccccc1C(=O)n1nc(NCc2ccc(Cl)s2)c(F)c1C1CCOCC1 [Compound 45]	Human thrombin (Homo sapiens, UniProt P00734)	< 6.00
CN(C)c1cccc2c(S(=O)(=O)N3CCC(c4nn(C(=O)C(C)(C)CO)c(NCc5ccc(Cl)s5)c4F)CC3)cccc12 [Compound 1]	Human thrombin (Homo sapiens, UniProt P00734)	> 7.00

----------
pIC50: −log10 of the molar value.
Recorded below: pIC50, system Human thrombin (Homo sapiens).
OBSERVATION_TYPE: pIC50

COMPOUND	OBSERVATION_TYPE	RESULT
CC(C)(C)C(=O)n1nc(-c2ccccc2)c(F)c1NCc1ccc(Cl)s1 [Compound 10]	pIC50	> 7.00
O=C(c1cccc2c1OCCO2)n1nc(NCc2ccc(Cl)s2)c(F)c1C1CCOCC1 [Compound 35]	pIC50	< 6.00
COc1ccccc1C(=O)n1nc(-c2ccccc2)c(F)c1NCc1ccc(Cl)s1 [Compound 44]	pIC50	> 7.00
COc1ccc(C(=O)n2nc(-c3ccccc3)c(F)c2NCc2ccc(Cl)s2)c(OC)c1 [Compound 38]	pIC50	> 7.00
O=C(c1ccoc1)n1nc(C2CCNCC2)c(F)c1NCc1ccc(Cl)s1 [Compound 50]	pIC50	> 7.00
CC(C)(CO)C(=O)n1nc(-c2ccccc2)c(F)c1NCc1ccc(Cl)s1 [Compound 14]	pIC50	> 7.00
COc1ccc(C(=O)n2nc(NCc3ccc(Cl)s3)c(F)c2C2CCOCC2)c(OC)c1 [Compound 39]	pIC50	< 6.00
CC(C)(O)C(=O)n1nc(-c2ccccc2)c(F)c1NCc1ccc(Cl)s1 [Compound 11]	pIC50	> 7.00
COc1ccccc1C(=O)n1nc(NCc2ccc(Cl)s2)c(F)c1C1CCN(S(=O)(=O)c2cccc3c(N(C)C)cccc23)CC1 [Compound 55]	pIC50	< 6.00
COc1ccccc1C(=O)n1nc(-c2ccc3c(c2)CCCC3=O)c(F)c1NCc1ccc(Cl)s1 [Compound 31]	pIC50	> 7.00
CC(C)(C)C(=O)n1nc(-c2ccc3c(c2)CCCC3O)c(F)c1NCc1ccc(Cl)s1 (centres unmarked) [Compound 2]	pIC50	< 6.00
O=C(n1nc(-c2ccccc2)c(F)c1NCc1ccc(Cl)s1)C1(CO)CC1 [Compound 62]	pIC50	> 7.00
CN(C)c1cccc2c(S(=O)(=O)Oc3ccccc3C(=O)n3nc(-c4ccccc4)c(F)c3NCc3ccc(Cl)s3)cccc12 [Compound 26]	pIC50	6.00 to 7.00
COc1ccccc1C(=O)n1nc(-c2ccccc2)c(F)c1NCc1ccccc1 [Compound 60]	pIC50	> 7.00
CC(C)(C)C(=O)n1nc(-c2ccccn2)c(F)c1NCc1ccccc1 [Compound 22]	pIC50	> 7.00
COc1ccccc1C(=O)n1nc(-c2ccc(C(O)C(F)(F)F)cc2)c(F)c1NCc1ccc(Cl)s1 (centres unmarked) [Compound 18]	pIC50	< 6.00
CC(C)(C)C(=O)n1nc(-c2ccc(N3CCCC3=O)cc2)c(F)c1NCc1ccc(Cl)s1 [Compound 16]	pIC50	> 7.00
